Tested on: RAW264.7
Experiment: Cytotoxicity against mouse RAW264.7 cells assessed as reduction in cell viability by MTT assay
Format: cell-based
readout-name: Activity

# compound, observed
data = [
    ("C=C1[C@@H](OC(C)=O)[C@@H](OC(=O)c2ccccc2)[C@@H](OC(=O)c2cccnc2)C(C)(C)[C@H]2O[C@](O)([C@H](C)C2=O)[C@@]2(OC(C)=O)C[C@H](C)[C@H](OC(C)=O)[C@@H]2[C@H]1OC(C)=O", "Non-toxic"),
    ("CCCCC/C=C\\C=C\\C(=O)O[C@H]1C(C)=C[C@]23C(=O)[C@@H](C=C(C)[C@@H](O)[C@]12O)[C@H]1[C@@H](C[C@H]3C)C1(C)C", "Non-toxic"),
    ("CC(=O)O[C@H]1C(C)=C[C@]23C(=O)[C@@H](C=C(CO)[C@@H](OC(=O)c4ccccc4)[C@]12O)[C@H]1[C@@H](C[C@H]3C)C1(C)C", "Non-toxic"),
    ("CCCCC/C=C\\C=C\\C(=O)O[C@@H]1C(COC(C)=O)=C[C@@H]2C(=O)[C@]3(C=C(C)[C@H](O)[C@@]13O)[C@H](C)C[C@@H]1[C@H]2C1(C)C", "Non-toxic"),
    ("C=C1[C@@H](OC(C)=O)[C@@H](OC(=O)c2ccccc2)[C@@H](OC(C)=O)C(C)(C)[C@H]2O[C@](O)([C@H](C)C2=O)[C@@]2(OC(C)=O)C[C@H](C)[C@H](OC(C)=O)[C@@H]2[C@H]1OC(C)=O", "Non-toxic"),
    ("C=C1[C@H](OC(=O)c2ccccc2)[C@H]2[C@@H](OC(C)=O)[C@](C)(O)[C@@H](OC(C)=O)[C@]2(O)C(=O)[C@@H](C)/C=C/C(C)(C)C(=O)[C@H](OC(C)=O)[C@H]1OC(=O)c1ccccc1", "Non-toxic"),
    ("CC1=C[C@@H]2C(=O)[C@]3(C=C(C)[C@H](OC(=O)c4ccccc4)[C@@]3(O)[C@@H]1O)[C@H](C)C[C@@H]1[C@H]2C1(C)C", "Non-toxic"),
    ("C=C1[C@@H](OC(C)=O)[C@@H](OC(=O)c2ccccc2)[C@@H](OC(C)=O)C(C)(C)[C@H]2O[C@](O)([C@H](C)C2=O)[C@@]2(OC(C)=O)C[C@@](C)(O)[C@H](OC(C)=O)[C@@H]2[C@H]1OC(C)=O", "Non-toxic"),
    ("CCCCC/C=C\\C=C\\C(=O)O[C@H]1C(C)=C[C@]23C(=O)[C@@H](C=C(COC(C)=O)[C@@H](O)[C@]12O)[C@H]1[C@@H](C[C@H]3C)C1(C)C", "Non-toxic"),
    ("CC1=C[C@]23C(=O)[C@@H](C=C(CO)[C@@H](O)[C@]2(O)[C@H]1O)[C@H]1[C@@H](C[C@H]3C)C1(C)C [INGENOL]", "Non-toxic"),
]

Ref: ChEMBL document CHEMBL3813605
